Molecular target: cloned human bradykinin B2 receptors (Homo sapiens, UniProt P30411)
Sequence (P30411 1-391): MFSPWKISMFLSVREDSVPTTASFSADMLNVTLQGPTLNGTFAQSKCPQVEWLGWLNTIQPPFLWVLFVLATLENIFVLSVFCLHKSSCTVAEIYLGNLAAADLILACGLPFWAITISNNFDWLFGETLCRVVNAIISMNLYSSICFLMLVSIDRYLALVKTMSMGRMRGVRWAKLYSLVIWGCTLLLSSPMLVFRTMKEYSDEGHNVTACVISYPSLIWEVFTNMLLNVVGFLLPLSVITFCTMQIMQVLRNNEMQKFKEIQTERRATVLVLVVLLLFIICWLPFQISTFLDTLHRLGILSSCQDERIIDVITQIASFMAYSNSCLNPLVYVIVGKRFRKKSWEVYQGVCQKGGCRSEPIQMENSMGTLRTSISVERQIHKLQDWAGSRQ
Test: Anti-bradykinin activity on cloned human B2 receptors (CHO cells, Cytosensor microphysiometer)
Format: cell-based
Conditions: Table 1; higher numbers indicate higher potency
assay_readout: HUMAN: pA2 for bradykinin antagonist potency on cloned human B2 receptors

DDD-(DArg-Arg-Aud-Pac-2Nal-Arg)2 [M516] : Ag
DDD-(Lys-Pac-Gly-mABz-2Nal-NH2)2 [M494] : Inact
DDD-(Arg-DIgl-Oic-Arg-OMe)2 [M598] : 10
DDD-(Eac-Arg-DIgl-Oic-Arg-OMe)2 [M608] : Inact

----------
system: SCLC strain SHP-77; test: Colorimetric tetrazolium (MTT) assay for cell survival, SCLC strain SHP-77; assay type: cell-based, human; settings: SCLC strain SHP-77 in vitro
Each item that follows carries a reported MTT: ED50 for killing of SCLC strain SHP-77 in vitro.
Your answer should be a plain number; it is taken to be in µM.

Consider the following illustrative entries.
COc1cc(C=CC(=O)N[C@@H](Cc2ccc3ccccc3c2)C(=O)NC2CC(C)(C)NC(C)(C)C2)cc(OC)c1O : 36
CC1(C)CC(NC(=O)C(Cc2csc3ccccc23)NC(=O)C=Cc2c(F)c(F)c(F)c(F)c2F)CC(C)(C)N1 (stereo not shown) : 3.8
O=C(NC1CN2CCC1CC2)C(NC(=NC1CCCCC1)NC1CCCCC1)C1Cc2ccccc2C1 (stereo not shown) : 20
CN(C)c1ccc(C=CC(=O)NC(Cc2ccc(OCc3c(Cl)cccc3Cl)cc2)C(=O)N(C)C2CC(C)(C)NC(C)(C)C2)cc1.O=C(O)C(F)(F)F (stereo not shown) [M630, Dmac-OC2Y-Matp.TFA] : 1.6

Incoming: // MTT: ED50 for killing of SCLC strain SHP-77 in vitro lookup, key: CC1(C)CC(NC(=O)C(Cc2ccc3ccccc3c2)NC(=O)COc2c(F)c(F)c(F)c(F)c2F)CC(C)(C)N1 (stereo not shown)
Outgoing: 10

Incoming: Do the same for CC1=C(CC(=O)NC(Cc2ccc3ccccc3c2)C(=O)NC2CC(C)(C)NC(C)(C)C2)c2cc(F)ccc2C1=Cc1ccc([S+](C)[O-])cc1 (stereo not shown) please
Outgoing: 13

----------
system: bradykinin response of isolated guinea pig ileum; test: Anti-bradykinin activity on isolated guinea pig ileum; conditions: isolated guinea pig ileum; pD2 of bradykinin is 7.4; higher numbers indicate higher potency
Examples of molecules with documented GPI: pA2 for bradykinin antagonist activity on isolated guinea pig ileum follow.
Lab note: jot the number down without any unit.

CC1(C)CC(NC(=O)[C@H](Cc2ccc3ccccc3c2)NC(=NC2CCCCC2)NC2CCCCC2)(C(=O)O)CC(C)(C)N1 [M244B] : 4.9
CN(C(=O)C=Cc1c(F)c(F)c(F)c(F)c1F)C(Cc1ccc(OCc2c(Cl)cccc2Cl)cc1)C(=O)NC1CC(C)(C)NC(C)(C)C1 (stereo not drawn) : 5.0

Query molecule follows.
Incoming: Name the recorded GPI: pA2 for bradykinin antagonist activity on isolated guinea pig ileum for CC1(C)CC(NC(=O)[C@H](Cc2ccc3ccccc3c2)NC(=N)CCCCCCCCCCCCC(=N)N[C@@H](Cc2ccc3ccccc3c2)C(=O)NC2CC(C)(C)NC(C)(C)C2)CC(C)(C)N1 [M254-2] .
Outgoing: 5.8
